# System: T-47D breast
# experiment description: NCI-60 one-dose screen, 48 h (100 = growth as untreated, 0 = no growth, -100 = all killed)
# experimental setup: 10 µM
The panel holds about 83,000 compounds, 20% with a hit somewhere; the sample as a whole holds those more often.
For each record, check the reported growth: if it is below 40% write Satisfied, else write Not satisfied.

# molecule, system name, group label
rows = [
    ("CC1(C)CC[C@]2(C(=O)Nc3ccccc3)CC[C@]3(C)C(=CC[C@@H]4[C@@]5(C)CC[C@H](N)C(C)(C)[C@@H]5CC[C@]43C)[C@H]2C1", "T-47D breast", "Not satisfied"),
    ("NS(=O)(=O)c1ccc(NC(=O)CSc2ccc(-c3ccc(Cl)cc3)nn2)c(Br)c1", "T-47D breast", "Not satisfied"),
    ("O=C1N/C(=N\\c2nccs2)S/C1=C\\c1cccs1", "T-47D breast", "Satisfied"),
    ("O=C(c1ccc(Cl)cc1)C1[C@H](c2ccc(Br)cc2)[C@@H](c2ccccc2)NC12C(=O)Nc1ccc(Br)cc12 (some centres not stated)", "T-47D breast", "Satisfied"),
    ("Cc1ccc(C(C)C)cc1NC(=O)c1ccccc1N(C)C", "T-47D breast", "Not satisfied"),
    ("O=C(CNc1nc(-c2ccccc2)cs1)Nc1cccc(Cl)c1", "T-47D breast", "Satisfied"),
    ("Cc1ccc(C(=O)NCCCNc2nc(Nc3ccc(N4CCN(C)CC4)cc3)nc3ccsc23)cc1", "T-47D breast", "Satisfied"),
    ("CN1CCN(c2ccc(Nc3nc(NCCCNC(=O)c4ccc(Cl)cc4)c4sccc4n3)cc2)CC1", "T-47D breast", "Not satisfied"),
    ("Cc1ccc2nc3c(nc2c1)c1cc(I)ccc1n3CCN(C)C", "T-47D breast", "Not satisfied"),
    ("Cc1cccc2cc(-c3cc(-c4ccccc4)nc(=O)[nH]3)c(Cl)nc12", "T-47D breast", "Not satisfied"),
    ("O=C(Nc1ccc(OCC(=O)c2ccccc2)cc1)Nc1ccc(Cl)c(C(F)(F)F)c1", "T-47D breast", "Satisfied"),
    ("O=C1CCC(N2Cc3cc(CC(=O)Nc4ccc(N5CCCCC5)cc4)ccc3C2=O)C(=O)N1 (configuration not stated)", "T-47D breast", "Satisfied"),
    ("CNC(=O)c1cccc(N2CCc3c2ccc(NC(=O)Nc2ccc(N4CCN(C)CC4)c(C(F)(F)F)c2)c3F)c1", "T-47D breast", "Not satisfied"),
    ("O=C(NO)c1ccc(-c2nc3ccc4[nH]ncc4c3c3c2CCCC3)cc1", "T-47D breast", "Satisfied"),
    ("COc1ccc(-c2cc(-c3cc(C(=O)c4ccccc4)n4ccc(C)cc34)nc(N)c2C#N)cc1", "T-47D breast", "Not satisfied"),
    ("CN(C)c1cccc2c(S(=O)(=O)Nc3cccc(-c4csc(NC(=O)CCCCCN5CCN(c6cc7c(cc6F)C(=O)N(C6CCC(=O)NC6=O)C7=O)CC5)n4)c3)cccc12 (configuration not stated)", "T-47D breast", "Not satisfied"),
    ("CC1(c2ccccc2)NC(=O)N(CC(=O)Nc2ccc(C(=O)/C=C/c3ccc(Br)cc3)cc2)C1=O (configuration not stated)", "T-47D breast", "Satisfied"),
    ("CN1CCc2c(sc3ncnc(N/N=C/c4cn(-c5ccccc5)nc4-c4ccc(Cl)cc4)c23)C1", "T-47D breast", "Satisfied"),
    ("COc1ccc2[nH]c(O)c(N=NC(=O)COc3ccc(NC(=O)Nc4ccc(Cl)c(Cl)c4)cc3)c2c1", "T-47D breast", "Satisfied"),
    ("O=C(c1ccc(O)cc1)C1[C@H](c2ccccc2Br)[C@@H](c2ccccc2)NC12C(=O)Nc1ccc(Br)cc12 (some centres not stated)", "T-47D breast", "Not satisfied"),
    ("CN1CCN(Cc2ccc(NC(=O)c3cncc(C#Cc4cnc5ccc(N[C@@H]6CCOC6)nn45)c3)cc2C(F)(F)F)CC1", "T-47D breast", "Satisfied"),
    ("CN1CCCN(Cc2ccc(C(=O)Nc3cccc(Nc4ccc5cc(O)ccc5n4)c3)cc2C(F)(F)F)CC1", "T-47D breast", "Not satisfied"),
    ("Cc1ccc(/C=C/C(=O)c2ccc(NC(=O)CSc3nnc(-c4c[nH]c5ccccc45)n3-c3ccccc3)cc2)c(C)c1", "T-47D breast", "Satisfied"),
    ("O=C(Nc1cc(Cl)cc(Cl)c1)Nc1cc(Cl)cc(Cl)c1", "T-47D breast", "Satisfied"),
    ("O=C1Nc2cc(Cl)ccc2/C1=C/c1cccc(OCc2ccccc2)c1", "T-47D breast", "Satisfied"),
    ("CC1(C)CC[C@]23CC[C@]4(C)[C@H](CC[C@@H]5[C@@]6(C)CC[C@H](N)C(C)(C)[C@@H]6CC[C@]54C)[C@H]2[C@H]1OC3=O", "T-47D breast", "Satisfied"),
    ("O=C(CNc1nc(-c2ccccc2)cs1)Nc1ccc(Br)cc1", "T-47D breast", "Satisfied"),
    ("N#Cc1ccc(-c2nn(-c3ccc(C(=O)O)cc3)cc2CNc2cc(Cl)cc(C(F)(F)F)c2)cc1", "T-47D breast", "Satisfied"),
    ("Cc1ccc(/C=C/C(=O)c2ccc(NC(=O)CSc3nnc(-c4c[nH]c5ccccc45)n3-c3ccccc3)cc2)cc1", "T-47D breast", "Not satisfied"),
    ("COc1ccsc1/C=N/NC(=O)c1[nH]c2ccc(Br)cc2c1-c1ccccc1", "T-47D breast", "Satisfied"),
    ("C=C(C)[C@@H]1CC[C@]2(C(=O)OC)CC[C@]3(C)[C@H](CC[C@@H]4[C@@]5(C)CC[C@H](N)C(C)(C)[C@@H]5CC[C@]43C)[C@@H]12", "T-47D breast", "Satisfied"),
]
